# System: Mus musculus
# ASSAY_NOTES: Antinociceptive activity in the hot plate test (central activity) in rodents, when compound administered subcutaneously
# Assay type: functional
# CONDITION_SUMMARY: sc
Listing of entries alongside the reported log10 ED50.
Annotation: log10 of ED50, mg/kg basis.

Use these answered entries as a reference point.
[
  {
    "SMILES_NOTATION": "CC(=O)O.CCN(C(=O)CNC(=O)[C@@H](CCCN=C(N)N)NC(=O)[C@H](Cc1ccc(O)cc1)N=C(N)N)[C@@H](Cc1ccc([N+](=O)[O-])cc1)C(N)=O",
    "RESULT_TYPE": "log10 ED50",
    "ASSAY_VALUE": -0.47
  },
  {
    "SMILES_NOTATION": "CC(=O)O.CCN(CCc1ccc(F)cc1)C(=O)CNC(=O)[C@@H](CCCN=C(N)N)NC(=O)[C@@H](N)Cc1ccc(O)cc1",
    "RESULT_TYPE": "log10 ED50",
    "ASSAY_VALUE": 1.09
  },
  {
    "SMILES_NOTATION": "CC(=O)O.CCN(CCc1cccs1)C(=O)CNC(=O)[C@@H](CCCN=C(N)N)NC(=O)[C@H](Cc1ccc(O)cc1)N=C(N)N",
    "RESULT_TYPE": "log10 ED50",
    "ASSAY_VALUE": 1.36
  },
  {
    "SMILES_NOTATION": "CC(=O)O.CCN(C(=O)CNC(=O)[C@@H](CCCN=C(N)N)NC(=O)[C@@H](N)Cc1ccc(O)cc1)[C@@H](Cc1ccccc1F)C(N)=O",
    "RESULT_TYPE": "log10 ED50",
    "ASSAY_VALUE": 0.29
  },
  {
    "SMILES_NOTATION": "CC(=O)O.CCN(Cc1ccccc1F)C(=O)CNC(=O)[C@@H](CCCN=C(N)N)NC(=O)[C@H](Cc1ccc(O)cc1)N=C(N)N",
    "RESULT_TYPE": "log10 ED50",
    "ASSAY_VALUE": 1.16
  }
]

stdin: # input compound: "CC(=O)O.CCN(C(=O)CNC(=O)[C@@H](CCCN=C(N)N)NC(=O)[C@@H](N)Cc1ccc(O)cc1)[C@@H](Cc1ccc(C(F)(F)F)cc1)C(N)=O" ; wanted: its log10 ED50
stdout: 1.23

stdin: # input compound: "CC(=O)O.CCN(C(=O)CNC(=O)[C@@H](CCCN=C(N)N)NC(=O)[C@H](Cc1ccc(O)cc1)N=C(N)N)[C@@H](Cc1ccc(F)cc1)C(N)=O" ; wanted: its log10 ED50
stdout: -0.05

stdin: # input compound: "CC(=O)O.CCN(CCc1ccc(F)cc1)C(=O)CNC(=O)[C@@H](CCCN=C(N)N)NC(=O)[C@H](Cc1ccc(O)cc1)N=C(N)N" ; wanted: its log10 ED50
stdout: 1.30

====

# Organism: Mus musculus
# ASSAY_NOTES: Dose ratio in the presence and absence of the peripheral opioid antagonist in N-methyl-nalorphine in AA writhing mice
# Assay type: functional
RESULT_TYPE: Ratio
Write the number on its own, no unit after it.

[
  {
    "SMILES_NOTATION": "CC(=O)O.CCN(CCc1ccc([N+](=O)[O-])s1)C(=O)CNC(=O)[C@@H](CCCN=C(N)N)NC(=O)[C@@H](N)Cc1ccc(O)cc1",
    "ASSAY_VALUE": 6.2
  }
]

Now for a further molecule.
stdin: # input molecule: "CC(=O)O.CCN(Cc1ccccc1F)C(=O)CNC(=O)[C@@H](CCCN=C(N)N)NC(=O)[C@@H](N)Cc1ccc(O)cc1" ; wanted: its Ratio
stdout: 8
